PBM binding z-score reference
test system: PXR homodimer (NR concentration 270 nM); assay: PBM binding z-score (relative to random genomic background probes); higher = stronger binding; sequences stand for … in GC…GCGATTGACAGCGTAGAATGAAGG

Example sequences with recorded PBM binding z-score:
INSERT INTO measurements (residue_codes, test_readout, val) VALUES
  ('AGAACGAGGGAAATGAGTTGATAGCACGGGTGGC', 'PBM binding z-score', 0.0651),
  ('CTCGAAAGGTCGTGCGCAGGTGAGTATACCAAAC', 'PBM binding z-score', -0.0048);

Query sequence follows.
Value of measured PBM binding z-score for the entry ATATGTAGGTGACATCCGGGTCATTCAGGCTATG : 2.13

###

system: PXR:RXRa (NR concentration 270 nM, RXRa partner concentration 90 nM); assay: PBM binding z-score (relative to random genomic background probes); higher = stronger binding; sequences stand for … in GC…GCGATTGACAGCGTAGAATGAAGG
test readout: PBM binding z-score
Give the figure by itself; no unit, no explanation.

INSERT INTO results (residue_codes, val) VALUES
  ('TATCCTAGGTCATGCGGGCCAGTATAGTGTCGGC', 2.04),
  ('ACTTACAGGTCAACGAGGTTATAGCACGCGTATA', 5.25),
  ('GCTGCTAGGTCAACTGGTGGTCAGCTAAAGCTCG', 1.61),
  ('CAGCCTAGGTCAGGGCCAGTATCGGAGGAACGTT', 0.107);

PBM binding z-score recorded for this sequence, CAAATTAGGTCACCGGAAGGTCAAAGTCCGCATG , is 6.18

Reported PBM binding z-score for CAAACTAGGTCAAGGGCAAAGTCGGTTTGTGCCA was 2.25

###

tested on: LXRb:RXRa (NR concentration 270 nM, RXRa partner concentration 90 nM); test: PBM binding z-score (relative to random genomic background probes); higher = stronger binding; sequences stand for … in GC…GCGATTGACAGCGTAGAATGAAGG
Rule: PBM binding z-score of 2 or more gives Y; anything lower gives N.

Worked cases, answers included:
INSERT INTO measurements (residue_codes, target_system, assigned_category) VALUES
  ('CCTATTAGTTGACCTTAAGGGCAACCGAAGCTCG', 'LXRb:RXRa (NR concentration 270 nM, RXRa partner concentration 90 nM)', 'Y'),
  ('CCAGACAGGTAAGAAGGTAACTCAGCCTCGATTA', 'LXRb:RXRa (NR concentration 270 nM, RXRa partner concentration 90 nM)', 'N'),
  ('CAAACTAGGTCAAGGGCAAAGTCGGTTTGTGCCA', 'LXRb:RXRa (NR concentration 270 nM, RXRa partner concentration 90 nM)', 'Y'),
  ('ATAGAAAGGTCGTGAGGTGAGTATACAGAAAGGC', 'LXRb:RXRa (NR concentration 270 nM, RXRa partner concentration 90 nM)', 'Y');

Threshold query (PBM binding z-score >= 2) on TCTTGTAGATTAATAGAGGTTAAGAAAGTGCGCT Y

Confirm if PBM binding z-score reported for the sequence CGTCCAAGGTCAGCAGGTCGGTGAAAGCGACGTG is 2 or above. Y

###

Recorded measurements of PBM binding z-score, one per entry
tested on: PPARg DBDmut IVT, anti-PPARg (DBD mutation: PPARg1 K132A/R137A, NR concentration 270 nM); experiment: PBM binding z-score (relative to random genomic background probes); higher = stronger binding; sequences stand for … in GC…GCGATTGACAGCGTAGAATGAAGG
Kindly provide the number alone.

Solved entries:
INSERT INTO measurements (residue_codes, val) VALUES
  ('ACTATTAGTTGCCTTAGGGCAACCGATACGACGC', 0.896),
  ('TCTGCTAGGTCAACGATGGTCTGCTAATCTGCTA', 1.25),
  ('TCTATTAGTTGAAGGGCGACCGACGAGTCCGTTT', 1.2),
  ('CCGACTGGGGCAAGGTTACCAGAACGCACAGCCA', -1.44),
  ('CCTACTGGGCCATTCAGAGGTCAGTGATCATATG', -0.353),
  ('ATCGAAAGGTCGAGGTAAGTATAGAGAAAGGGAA', 1.3);

Kindly note the recorded PBM binding z-score for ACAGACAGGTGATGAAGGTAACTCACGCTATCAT , which is -0.0294

Memo: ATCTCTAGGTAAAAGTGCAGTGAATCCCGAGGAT , reported PBM binding z-score: 0.971

Field PBM binding z-score (entry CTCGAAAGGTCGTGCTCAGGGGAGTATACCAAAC ) reads 0.455

The sequence listed as ACTAGTTGGTCAGCTGAGGTCACACATAATTCGG shows PBM binding z-score equal to 1.05
